- System: Glucose transporter (Leishmania mexicana) (UniProt O61059)
- Test: ST_JUDE_LEISH: Cytotoxicity at 2uM final concentration against transgenic Leishmania Mexicana promastigotes LmGT2 that are glucose transport deficient and complemented with the L. Mexicana glucose transporter 2. Activity is measured by DNA content using SYBR green in vitro
- Format: functional
Property label: inhibition (%)

> print(dat)
                                    compound  property.label  measurement.unit  measured.number
 1  COc1ccc(C(=O)COc2cccc(/C=C/C(=O)O)c2)cc1OC      inhibition                 %            -0.23
 2  CCCCn1c(Sc2ccc(C#N)c([N+](=O)[O-])c2)nnc1-c1cc(OC)cc(OC)c1      inhibition                 %             0.45
 3  CCN(CC)CCNC(=O)c1ccc(NC(=O)c2cn(-c3ccccc3)nc2-c2cccs2)cc1      inhibition                 %             6.19
 4  O=C(CC(=O)Nc1cc(Cl)cc(Cl)c1)Nc1cc(Cl)cc(Cl)c1      inhibition                 %             0.68
 5  O=c1c(NCCCN(Cc2ccc(F)cc2)c2ccccn2)c(NCc2cccnc2)c1=O      inhibition                 %             1.65
 6  O=C(Nc1ccc(Cl)cc1)Nc1cccc(-c2ccc(-c3nc4ccccc4[nH]3)cc2)c1      inhibition                 %             1.94
 7  CC(Oc1ccc(NC(=O)c2cccs2)cc1)C(=O)c1ccc(Cl)cc1 (stereo not given)      inhibition                 %             7.25
 8  CCc1ccc(S(=O)(=O)Nc2cccc(CCN3CCC(N4CCCCC4)CC3)c2)cc1      inhibition                 %            -0.34
 9            O=C(Nc1nc2ccc(Cl)cc2s1)c1csnn1      inhibition                 %            -5.77
10  CCCCOc1ccc(C(=O)C(CCC(CNC(C)(C)C)C(=O)c2ccc(OCCCC)cc2)CNC(C)(C)C)cc1 (stereo not given)      inhibition                 %             31.8
11  CCCC(C)N(Cc1ccc(C(C)(C)C)cc1)C(=O)c1cccc(C#N)c1 (stereo not given)      inhibition                 %            -1.38
12  CNC(=O)C(NC(=O)c1ccccc1C(=O)OC)c1ccccc1 (stereo not given)      inhibition                 %            -2.13
13  COc1cccc(OC)c1CN1CCC(N(C)CCCCCCCCCN2CCC(OC(=O)Nc3ccccc3-c3ccccc3)CC2)CC1      inhibition                 %              111
14    CCOC(=O)c1ccc(NC(=O)c2ccccc2C(=O)O)cc1      inhibition                 %            -0.02
15  O=C(N[C@H]1CCN(CCc2ccc(O[C@H]3CCNC3)c(Br)c2)C1)c1ccc(Cl)c(Cl)c1      inhibition                 %             1.43
16  COc1ccc2ncc(F)c(CCN3CCC(NCc4cc5c(cn4)OCCS5)CC3)c2c1      inhibition                 %             80.3
17  O=C(Nc1cccc(-c2nc3ccccc3s2)c1)c1ccccc1[N+](=O)[O-]      inhibition                 %            -0.15
18  O=S(=O)(Nc1cccc(CCN2CCCCC2CCN2CCCC2)c1)c1ccc(-c2ccccc2)cc1 (stereo not given)      inhibition                 %            -2.73
19  COc1cccc(Nc2nccc(NCC(O)c3cccc(C(F)(F)F)c3)n2)c1 (stereo not given)      inhibition                 %             1.78
20  Cc1cc(NCCC(=O)Nc2ccccc2)nc(NCCc2cccs2)n1      inhibition                 %            -0.18
21  CCOCc1cnc(C)nc1CNC(=O)c1c(C)[nH]c2ccc(C)cc12      inhibition                 %             1.12
22  N#Cc1ccc(N/C(=N\c2ccc(-c3ccccc3)cc2)NCc2cccnc2)c(O)c1      inhibition                 %             5.44
23  Cc1nc(-c2cccc(Nc3nccc(NCC(O)c4ccccc4)n3)c2)cs1 (stereo not given)      inhibition                 %             2.14
24  O=C(Nc1cccc(-c2cccc(-c3nc4cc(F)ccc4[nH]3)c2)c1)Nc1ccc(F)c(F)c1F      inhibition                 %             7.83
25  NC1=NC2(CCCCC2)N(OCCCCCCCCNc2nc(N)nc(N)n2)C(N)=N1      inhibition                 %             5.12
26  Cc1ccc(NC(=O)c2ccc(CN3CCCN(CC4CCCCC4)CC3)cc2)cc1C      inhibition                 %             8.98
27  Cc1cccc2nc(-c3cccc(-c4cccc(NC(=O)c5cnn6cccnc56)c4)c3)[nH]c12      inhibition                 %             1.19
28  Cc1ccccc1N1CCN(c2ccc(C(=O)Nc3ccccc3)cc2)CC1      inhibition                 %             1.33
29  Cc1cc(NCCC(=O)NCCc2ccccc2)nc(NCCc2ccc(F)cc2)n1      inhibition                 %             2.22
30  COCn1ncc2cc(-c3cccc(NC(=O)c4csc(NC(C)=O)n4)c3)ccc21      inhibition                 %             2.05
31  COC(=O)COc1cc(C(=O)NCCCCN2CCC(c3ccc4c(c3OC)CCCC4)CC2)ccc1-c1ccc(Cl)cc1      inhibition                 %              1.4
32  Cc1cc2c(/C=C/C(=O)NC3CCC(CCN4CCc5ccc(C#N)cc5CC4)CC3)cccc2[nH]1 (stereo not given)      inhibition                 %             3.25
33  O=C(NC1CC1)c1ccc(N2CCCC(COc3ccccc3F)C2)nc1 (stereo not given)      inhibition                 %             2.62
34  CC(Cc1ccc(NC(=O)c2ccc(CNCCc3ccccc3)cc2)cc1)NCCc1cccc(Cl)c1 (stereo not given)      inhibition                 %             4.52
35  CC(C)C[C@@H](C(=O)N[C@@H](CCCCNC(=O)OCc1ccccc1)C(=O)Nc1nccs1)[C@H](C)N(O)C=O      inhibition                 %             0.49
36            NCc1cccc(-c2ccc3ccnc(N)c3c2)c1      inhibition                 %              1.2
37           O=c1nc2[nH]c3ccccc3n2c(=O)[nH]1      inhibition                 %             3.41
38  Clc1ccc(Cl)c2[nH]c(CNCCCNc3nc4ccccc4[nH]3)cc12      inhibition                 %             1.29
39  Cc1ccc2[nH]c(C3CCCNC3)c(-c3ccncc3)c2c1 (stereo not given)      inhibition                 %             8.51
40  COc1ccc2ncc(Cl)c(CCN3C[C@H](CNCc4ccc5c(n4)NC(=O)CS5)[C@H](O)C3)c2n1      inhibition                 %             2.02
